- target or test system: HCV genotype 1b (BK) NS3 modified with a R155K mutation (Hepatitis C virus genotype 1b, UniProt P26663, R1181K)
- Construct: HCV genotype 1b (BK) NS3 modified with a R155K mutation
- procedure text: HCV NS3 protease time-resolved fluorescence (TRF) assay, NS3 protease 1b R155K Ki activity
- test settings: HCV genotype 1b (BK) NS3 with R155K mutation; TRF peptide substrate 100 nM; Ki derived from IC50
quantity measured: Ki

Task: Item `CC[C@@H]1C[C@]1(NC(=O)[C@@H]1C[C@@H]2CN1C(=O)[C@H](C1CCCC1)NC(=O)O[C@@H]1CCC[C@H]1CC/C=C/Cn1c(nc3cccc(OC)c3c1=O)O2)C(=O)NS(=O)(=O)C1CC1` has what recorded Ki?
Result: 0.1 to 0.5 nM

Task: Repeat with `C=C[C@@H]1C[C@]1(NC(=O)[C@@H]1C[C@@H]2CN1C(=O)[C@H](C1CCCC1)NC(=O)O[C@@H]1CCC[C@H]1CCCCCn1c(cc3ccccc3c1=O)O2)C(=O)NS(=O)(=O)C1CC1`
Result: < 0.1 nM

Task: Repeat with `C=C[C@@H]1C[C@]1(NC(=O)[C@@H]1C[C@@H]2CN1C(=O)[C@H](C1CCCC1)NC(=O)O[C@@H]1CCC[C@H]1C/C=C/Cn1c(cc3ccccc3c1=O)O2)C(=O)NS(=O)(=O)C1CC1`
Result: 0.1 to 0.5 nM

Task: Repeat with `CC[C@@H]1C[C@]1(NC(=O)[C@@H]1C[C@@H]2CN1C(=O)[C@H](C1CCCC1)NC(=O)O[C@@H]1CCC[C@H]1CC/C=C/Cn1c(nc3c(OC)cccc3c1=O)O2)C(=O)NS(=O)(=O)C1CC1`
Result: 0.1 to 0.5 nM

Task: Repeat with `C=C[C@@H]1C[C@]1(NC(=O)[C@@H]1C[C@@H]2CN1C(=O)[C@H](C(C)(C)C)NC(=O)O[C@@H]1CCC[C@H]1C/C=C/CCn1c(cc3ccccc3c1=O)O2)C(=O)NS(=O)(=O)C1CC1`
Result: < 0.1 nM

All figures here come from patent US8461107B2.
